- Tested on: 786-0 renal
- ASSAY COMMENT: NCI tumour cell line growth inhibition, 48 h
Quick reference for TGI among some molecules

Sample answers from the record:
MOLECULE	OBSERVED MEASUREMENT
COc1ccc(C2=C(Cl)c3cc(OC)c(OC)cc3C2Cl)cc1 (centres undefined)	28.6 µM
c1ccc(C2N3CCCCC3[C@@H]3c4[nH]c5ccccc5c4CCN23)nc1 (some centres undefined)	> 100 µM
O=C1/C(=C(/c2ccccc2)N2CCOCC2)Cc2ccccc21	3.81 µM

Input: What measured TGI goes with Cc1ccc2c3c1O[C@H]1c4[nH]c5ccccc5c4C[C@@]4(O)[C@@H](C2)N(CC2CC2)CC[C@]314 ?
Output: 27.1 µM

Input: And O=C(N/N=C\C=C\c1ccc([N+](=O)[O-])o1)C(=O)N/N=C\C=C\c1ccc([N+](=O)[O-])o1 ?
Output: > 100 µM

Input: And Clc1cc(Cl)c2ns[s+]c2c1Cl ?
Output: > 100 µM

Input: And COC(=O)CC1N=C(NC#N)N(CCc2c[nH]c3ccccc23)C1=O (centres undefined) ?
Output: > 100 µM

Input: And CC1=CCC(O)C=CC(C)C(O)C(C)C=C(C)C(=O)c2c(O)c(C)cc3c2C(=O)C(N)=C(NC(=O)/C=C\C=C/C=CC(C)C(O)CC1=O)C3=O (centres undefined) ?
Output: > 100 µM

Input: And Cc1ccc(NC(=O)c2cccc(C(C)(C)C#N)c2)cc1Nc1ccc2ncn(C)c(=O)c2c1 ?
Output: > 100 µM

* * *

- System: CAKI-1 renal
- ASSAY COMMENT: NCI tumour cell line growth inhibition, 48 h
MEASUREMENT NAME: TGI

COMPOUND	TARGET ENTITY	TGI
Cc1nnc(NS(=O)(=O)c2ccc(N=Nc3cc(N=Nc4ccc(S(=O)(=O)Nc5nnc(C)s5)cc4)c4c(NC(=O)C(Cl)Cl)cccc4c3OC(=O)C(Cl)Cl)cc2)s1 (tested in a mixture with another compound)	CAKI-1 renal	> 100 µM
CN1CCN(CCCNc2nc3ccc(Oc4ccc(NC(=O)Nc5cc(C(F)(F)F)ccc5F)cc4)cc3[nH]2)CC1	CAKI-1 renal	> 25 µM
CN(C)CCNc1ccc(CO)c2oc3ccc(O)cc3c(=O)c12	CAKI-1 renal	> 100 µM
COC(=O)Nc1nc2ccc(C3(c4ccc(F)cc4)OCCO3)cc2[nH]1	CAKI-1 renal	> 100 µM
COc1cc2ncnc(-n3ncc4cc(NC(=O)Nc5ccccc5)ccc43)c2cc1OC	CAKI-1 renal	12.1 µM
O=C(c1cccc2ccccc12)N1CCC(C2CCN(C(=O)c3cccc4ccccc34)CC2)CC1	CAKI-1 renal	> 100 µM
C=C(C)[C@H]1Cc2c(ccc3c2O[C@@H]2COc4cc(OC)c(OC)cc4[C@@H]2C3=O)O1	CAKI-1 renal	63.8 µM
c1cnn(CN(Cn2cccn2)Cn2cccn2)c1	CAKI-1 renal	> 100 µM

Input: What measured TGI goes with CCCc1c(O)nc(Nc2nc3ccccc3[nH]2)[nH]c1=O ?
Output: > 100 µM

Input: And N#C/C(=C/NC(N)=S)C(N)=O ?
Output: > 100 µM

Input: And Clc1cc(Cl)c2ns[s+]c2c1Cl ?
Output: > 100 µM

* * *

- System: HOP-92 NSCLC
- ASSAY COMMENT: NCI tumour cell line growth inhibition, 48 h
Quick reference for GI50 among some compounds

Sample answers from the record:
SMILES NOTATION	MEASUREMENT NAME	OBSERVED MEASUREMENT
O=S(=O)(c1ccc(NC(=S)NC23CC4CC(CC(C4)C2)C3)cc1)N1CCCCC1	GI50	1630 nM
c1ccc(Sc2ccc(Cc3nc4cc5ccccc5cc4[nH]3)cc2)cc1	GI50	6330 nM
C=CCCCCC/C=C\[C@@H](O)C#CC#C/C=C/CO	GI50	> 100000 nM
CCNCCNc1cc(-c2ccc(C(F)(F)F)cc2)c(C#N)c2nc3ccccc3n12	GI50	1550 nM
CCc1nc2cc(F)c(/C=C/C(=O)NO)cc2c(=O)n1CCc1ccccc1	GI50	330 nM

Turning to the following compound.
Input: Enter reported GI50 observed with HOP-92 NSCLC for Nc1ccccc1C#C/C=C\C#Cc1ccccc1N
Output: 1200 nM

* * *

Quick reference for TGI among some compounds
- Test system: CCRF-CEM leukemia
- ASSAY COMMENT: NCI tumour cell line growth inhibition, 48 h

Sample answers from the record:
COMPOUND	TGI
O=C(NCP(=O)(c1ccccc1)c1ccccc1)OCc1ccccc1	> 100 µM
CCCCNC1CCCCC[C@H]1O (stereo not given in full)	> 100 µM
COC(=O)C1=CS/C(=C2\S[C@@H]3[C@H](S2)[C@H]2C=C[C@@H]3C2)S1	> 100 µM
O=C(NC(Cc1ccccc1)(Cc1ccc(O)cn1)C(=O)O)c1ccccc1 (stereo not given)	> 100 µM
O=c1c2ccccc2nc(Cc2nc(-c3ccc(Cl)cc3)cs2)n1-c1ccc(Cl)cc1	> 100 µM

Input: Enter reported TGI observed with CCRF-CEM leukemia for COc1cc2ncnc(-n3ncc4cc(NC(=O)Nc5ccccc5)ccc43)c2cc1OC
Output: 13.6 µM

Input: And Cn1c([C@H](C#N)c2ncccc2[N+](=O)[O-])nc2ccccc21 ?
Output: > 100 µM

* * *

- Tested on: UACC-257 melanoma
- ASSAY COMMENT: NCI tumour cell line growth inhibition, 48 h; in the data active means GI50 below about 0.43 µM; inactive means the rest
Tick one outcome: active, inactive

Here's what some known entries look like.
COMPOUND	CLASSIFICATION
c1ccc(Sc2ccc(Cc3nc4cc5ccccc5cc4[nH]3)cc2)cc1	inactive
CC12OC(C(=O)C13CC3)C1C(=O)c3ccc4c(ccc5ccccc54)c3C(=O)C12 (stereo unspecified)	inactive
COc1cc(OC)c(C(=O)/C=C/c2cccc(C(F)(F)F)c2)c(OC)c1	inactive

Input: Per the records of this test, what outcome belongs to CCc1nc2cc(F)c(/C=C/C(=O)NO)cc2c(=O)n1CCc1ccccc1 ?
Output: active

Input: And Nc1nc(Nc2cccnc2)sc1C(=O)c1ccccc1F ?
Output: inactive

Input: And S=c1ssc(N2CCOCC2)c1Cl ?
Output: inactive

* * *

Quick reference for TGI among some compounds
- Tested on: HT29 colon
- ASSAY COMMENT: NCI tumour cell line growth inhibition, 48 h
Numbers only; they are read as µM.

Sample answers from the record:
SMILES NOTATION	TGI (µM)
NNC(=O)c1c(SCc2ccccc2)nc2c3ccccc3ccn12	35.3
Cc1ccc2c3c1O[C@H]1c4[nH]c5ccccc5c4C[C@@]4(O)[C@@H](C2)N(CC2CC2)CC[C@]314	18.7

Turning to the following compound.
Input: What measured TGI goes with CC1=CC(C)(C)N=C2SC(c3ccc(N)cc3)=NN12 ?
Output: 98.2

* * *

Quick reference for TGI among some molecules
- System: RPMI-8226 leukemia
- ASSAY COMMENT: NCI tumour cell line growth inhibition, 48 h

Sample answers from the record:
MOLECULE	OBSERVED MEASUREMENT
O=C(N/N=C\C=C\c1ccc([N+](=O)[O-])o1)C(=O)N/N=C\C=C\c1ccc([N+](=O)[O-])o1	> 100 µM
CC(=O)C1Cn2c(nc3ccccc32)C[Se]1 (stereo unspecified)	62.9 µM

Input: Enter reported TGI observed with RPMI-8226 leukemia for C/C(=N\Nc1ccc(Cl)cn1)c1ccc2ccccc2n1
Output: > 100 µM

Input: And COc1ccc(CN2CC(C)(C)C2=O)c(OC)c1 ?
Output: > 100 µM

Input: And COc1c(C(=O)/C=C/c2ccccc2)c(O)cc2occc12 ?
Output: 9.42 µM

Input: And CN(Cc1ccccc1)C(=O)c1ccccc1C(=O)O ?
Output: > 100 µM

* * *

- Test system: HCT-15 colon
- ASSAY COMMENT: NCI tumour cell line growth inhibition, 48 h
Quick reference for TGI among some compounds

Sample answers from the record:
COMPOUND	TGI
N#CCCC(CCC#N)(CCC#N)NO	> 100 µM
O=C(Nc1ccccc1-c1nc2ccccc2[nH]c1=O)c1ccccc1	> 100 µM
CC1=CCC(O)C=CC(C)C(O)C(C)C=C(C)C(=O)c2c(O)c(C)cc3c2C(=O)C(N)=C(NC(=O)/C=C\C=C/C=CC(C)C(O)CC1=O)C3=O (stereo not given)	> 100 µM
[N-]=[N+]=C1C(=O)NN=C1c1ccccc1	> 100 µM
COC(=O)c1cc2c(cc1CC(Cc1ccc3c(c1)CCCC3)C(=O)OC)CCCC2 (stereo not given)	> 100 µM
CC(C)=CCC(O)[C@](C)(O)[C@H]1[C@H](O)C[C@@]2(C)[C@@H]3CCc4cc(O)c(OC5OC(CO)C(O)C(O)C5O)cc4C3(C)C(=O)C[C@]12C (stereo not given in full)	> 100 µM
COc1cc(-c2nc3ccccn3c2/N=C/c2cc(Br)cc(Br)c2O)ccc1O	44.8 µM
CN(C)CCC1(C2=CCCC2)CC/C(=C\c2ccc(Cl)cc2)C1=O (stereo not given)	16.6 µM

Input: What measured TGI goes with C=CCCC1(CC(Sc2ccccc2)P(=O)(c2ccccc2)c2ccccc2)OCCO1 (stereo not given) ?
Output: > 10 µM

Input: And Cn1cc(C2(C)CC(C)(C)c3c2n(C)c2ccccc32)c2ccccc21 (stereo not given) ?
Output: > 100 µM

Cited source: PubChem BioAssay (NCI)
